- TEST_SUMMARY: In-vivo pharmacokinetic evaluation, single dose
- Set-up: species or system New Zealand White rabbits
- TEST_SETTINGS: New Zealand White, whole blood, 1 mg; heading: Average Tac conc.; rabbit blood, 0.5 (30 mins) after single 1 mg dose (oral or buccal patch)

[
  {
    "COMPOUND": "C=CC[C@@H]1/C=C(\\C)C[C@H](C)C[C@H](OC)[C@H]2O[C@@](O)(C(=O)C(=O)N3CCCC[C@H]3C(=O)O[C@H](/C(C)=C/[C@@H]3CC[C@@H](O)[C@H](OC)C3)[C@H](C)[C@@H](O)CC1=O)[C@H](C)C[C@@H]2OC (relative stereo) [Tacrolimus, monohydrate]",
    "concentration at 0.5 h, ng/mL": 12.3
  }
]
